Exercise: state measured Ki for each of the molecules provided.

-- ask Please state recorded Ki (tested on serotonin 5-HT2A receptor (Homo sapiens)) of Cn1c(=O)cnn(CCCCN2CCN(c3ncccc3-c3ccncc3)CC2)c1=O [Compound 11b]
Sequence (P28223 whole entry): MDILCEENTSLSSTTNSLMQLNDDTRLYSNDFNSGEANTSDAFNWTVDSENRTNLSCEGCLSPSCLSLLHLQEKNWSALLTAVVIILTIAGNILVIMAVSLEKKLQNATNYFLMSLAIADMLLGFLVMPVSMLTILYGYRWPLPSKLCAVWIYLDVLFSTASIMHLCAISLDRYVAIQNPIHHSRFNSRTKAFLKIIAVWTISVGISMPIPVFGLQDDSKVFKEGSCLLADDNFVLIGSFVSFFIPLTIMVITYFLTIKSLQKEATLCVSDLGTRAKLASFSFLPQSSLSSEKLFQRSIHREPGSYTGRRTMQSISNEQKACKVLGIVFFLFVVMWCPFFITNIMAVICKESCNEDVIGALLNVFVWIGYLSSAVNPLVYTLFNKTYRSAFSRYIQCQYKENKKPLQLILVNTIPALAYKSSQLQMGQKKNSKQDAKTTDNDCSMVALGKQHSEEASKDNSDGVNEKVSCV
-- reply > 10 µM

-- ask So what Ki did Cc1cc(=O)oc2cc(OCCCCN3CCN(c4ncccc4-c4ccncc4)CC3)ccc12 [Compound 12b] get with serotonin 5-HT2A receptor (Homo sapiens)?
-- reply ~1.42 µM

-- ask Request - read-out Ki | tested on serotonin 5-HT2A receptor (Homo sapiens) | molecule Cn1c(=O)cnn(CCCN2CCN(c3ncccc3-c3ccncc3)CC2)c1=O [Compound 11a]
-- reply > 10 µM
